# MEASURED TARGET: Laminin 421/521
# ASSAY PROCEDURE: phage display, NGS count
// not satisfied strictly below 40 in Count; satisfied otherwise

- BINDER: "WPVRNLL"
  CATEGORY: "satisfied"
- BINDER: "GAMMNSNNLVAR"
  CATEGORY: "satisfied"
- BINDER: "CTAWTRQEC"
  CATEGORY: "not satisfied"
- BINDER: "CHNADNNGC"
  CATEGORY: "not satisfied"
- BINDER: "WQWRSTELGYRY"
  CATEGORY: "not satisfied"
